These entries and their values trace back to the NIST ThermoML archive (doi:10.1021/acs.jced.6b00688).

# CONDITION_DESCRIPTION: 328.15 K; 101.33 kPa; Liquid; Falling or rolling sphere viscometry
ASSAY_METRIC: viscosity (mPa·s)
Give bare numbers, in mPa·s.

COMPOUND: CC1CCCCC1
QUANTITY_UNIT: mPa·s
viscosity: 0.491
//
COMPOUND: CCCCCCCCCCCC
QUANTITY_UNIT: mPa·s
viscosity: 0.873
//
COMPOUND: OCC1CCCCC1
QUANTITY_UNIT: mPa·s
viscosity: 7.521

We next turn to a different compound, shown below.
Endpoint output: viscosity of CCCCCCCO . Value?
2.423

====

# CONDITION_DESCRIPTION: 313.15 K; 101.33 kPa; Liquid; Falling or rolling sphere viscometry
ASSAY_METRIC: viscosity (mPa·s)
Numbers only, in mPa·s.

COMPOUND: CC1CCCCC1 [methylcyclohexane]
REPORTED: 0.571

COMPOUND: OCC1CCCCC1 [cyclohexylmethanol]
REPORTED: 13.83

COMPOUND: CCCCCCCCCCCC [dodecane]
REPORTED: 1.073

We next turn to a different compound, shown below.
Endpoint output: viscosity of CCCCCCCO [heptan-1-ol] . Value?
3.648
